# ASSAY_INFO: Pharmacokinetic parameters in-vivo (IV, IP, PO)
# ASSAY_CONDITIONS: iv, 1 mg/kg, read-out: Exposure (AUC)
VALUE_KIND: AUC (ng·h/mL)
Express it in ng·h/mL; write the number only.

Lookup: Complete the entry with AUC for "O=C(O)c1sc2cscc2c1F"
Found: 6130

Lookup: Consider the compound "O=C(O)c1cc2c(F)c(F)sc2s1" . State its measured AUC.
Found: 3580

* * *

# ASSAYED_SYSTEM: BDK (Homo sapiens)
# Construct: endogenous in cells; host or cells: human lymphoblasts
# ASSAY_INFO: BDK inhibitory activity in cell culture (human lymphoblasts)
# Assay type: cell-based
# ASSAY_CONDITIONS: human lymphoblasts; read-out: IC50 lymphoblasts
VALUE_KIND: pIC50
Scale: negative log10 of molar concentration, which is what pIC50 denotes.

Lookup: Specify reported pIC50 for the compound shown: O=C(O)c1cc2c(F)c(F)sc2s1 [RMO-800]
Found: 7.00

Lookup: Assign pIC50 to the following record: O=C(O)c1cc2c(F)sc(F)c2s1 [RMO-1149]
Found: 6.42

Lookup: Find the measured pIC50 of O=C(O)c1sc2sc(F)cc2c1F [RMO-801] and report it.
Found: 6.77

Lookup: Give recorded pIC50. O=C(O)c1sc2cscc2c1F [RMO-1154]
Found: 6.24

Lookup: Report pIC50 for O=C(O)c1sc2sccc2c1F [RMO-1153]
Found: 6.54
